# target.entity: T1, recombinant human bone morphogenetic protein-2 (rhBMP-2) (human, UniProt P12643 283-396)
# T1 construct: Amine-coupled to a CM-5 sensor chip
# test.method.notes: SPR (Biacore X), rhBMP-2 on CM-5 chip, peptide as analyte; rhBMP-2 affixed to the chip; cyclized BBP, not reduced
pKd: −log10 of the molar value. Bridges are numbered along the chain shown (N, C = ends). Where no end group is shown, it is not given here.

binder: CRSTVRMSAEQVQNVWVRC (disulfide 1-19 (inferred), it is treated here as the same bovine cyclic peptide; also called cyclized BBP) [BMP Binding Peptide (BBP), cyclized synthetic 19 amino acid peptide]
pKd: ~4.52
